Test system: 454973-116-R2-J3-PDC complex spheroid viability;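 also: spheroids exposed to drugs for seven days before measurement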
Experiment: Anticancer human tumor 454973-116-R2-J3-PDC patient-derived pancreatic carcinoma cell line growth inhibition [POLQ]
Conditions: second compound 1 µM; first compound 0.01 µM; stronger effect = lower value
Rule: measured viability, T/C below 90% gets Yes; anything equal to or greater than 90% gets No.

{"Compound": "CCc1c2c(nc3ccc(O)cc13)-c1cc3c(c(=O)n1C2)COC(=O)[C@]3(O)CC + Cc1cccc(N(C)C(=O)C2C(O)CCN2c2nc(C)cc(C(F)(F)F)c2C#N)c1", "Tested Target": "454973-116-R2-J3-PDC complex spheroid viability", "Group Label": "Yes"}
{"Compound": "C=CCn1c(=O)c2cnc(Nc3ccc(N4CCN(C)CC4)cc3)nc2n1-c1cccc(C(C)(C)O)n1 + Nc1ccc(C#CCN(C(=O)Cc2ncc(C(F)(F)F)cc2C(F)(F)F)c2ccc(F)cc2)nn1", "Tested Target": "454973-116-R2-J3-PDC complex spheroid viability", "Group Label": "No"}
{"Compound": "CCc1c2c(nc3ccc(O)cc13)-c1cc3c(c(=O)n1C2)COC(=O)[C@]3(O)CC + Nc1ccc(C#CCN(C(=O)Cc2ncc(C(F)(F)F)cc2C(F)(F)F)c2ccc(F)cc2)nn1", "Tested Target": "454973-116-R2-J3-PDC complex spheroid viability", "Group Label": "Yes"}
{"Compound": "Cn1ncnc1[C@H]1c2n[nH]c(=O)c3cc(F)cc(c23)N[C@@H]1c1ccc(F)cc1 + COC1C(OC(N)=O)C(O)C(Oc2ccc3c(O)c(NC(=O)c4ccc(O)c(CC=C(C)C)c4)c(=O)oc3c2C)OC1(C)C", "Tested Target": "454973-116-R2-J3-PDC complex spheroid viability", "Group Label": "No"}
{"Compound": "CCc1c2c(nc3ccc(O)cc13)-c1cc3c(c(=O)n1C2)COC(=O)[C@]3(O)CC + COC1C(OC(N)=O)C(O)C(Oc2ccc3c(O)c(NC(=O)c4ccc(O)c(CC=C(C)C)c4)c(=O)oc3c2C)OC1(C)C", "Tested Target": "454973-116-R2-J3-PDC complex spheroid viability", "Group Label": "Yes"}
{"Compound": "COc1cccc(OCCCN)c1-c1cc(Nc2cnc(C#N)cn2)n[nH]1 + Cc1cccc(N(C)C(=O)C2C(O)CCN2c2nc(C)cc(C(F)(F)F)c2C#N)c1", "Tested Target": "454973-116-R2-J3-PDC complex spheroid viability", "Group Label": "Yes"}
{"Compound": "COc1cccc(OCCCN)c1-c1cc(Nc2cnc(C#N)cn2)n[nH]1 + COC1C(OC(N)=O)C(O)C(Oc2ccc3c(O)c(NC(=O)c4ccc(O)c(CC=C(C)C)c4)c(=O)oc3c2C)OC1(C)C", "Tested Target": "454973-116-R2-J3-PDC complex spheroid viability", "Group Label": "Yes"}
{"Compound": "Cn1ncnc1[C@H]1c2n[nH]c(=O)c3cc(F)cc(c23)N[C@@H]1c1ccc(F)cc1 + Cc1cccc(N(C)C(=O)C2C(O)CCN2c2nc(C)cc(C(F)(F)F)c2C#N)c1", "Tested Target": "454973-116-R2-J3-PDC complex spheroid viability", "Group Label": "No"}
{"Compound": "CC[C@@]1(O)C(=O)OCc2c1cc1n(c2=O)Cc2cc3c(CN(C)C)c(O)ccc3nc2-1 + Nc1ccc(C#CCN(C(=O)Cc2ncc(C(F)(F)F)cc2C(F)(F)F)c2ccc(F)cc2)nn1", "Tested Target": "454973-116-R2-J3-PDC complex spheroid viability", "Group Label": "Yes"}
{"Compound": "COc1cccc(OCCCN)c1-c1cc(Nc2cnc(C#N)cn2)n[nH]1 + Nc1ccc(C#CCN(C(=O)Cc2ncc(C(F)(F)F)cc2C(F)(F)F)c2ccc(F)cc2)nn1", "Tested Target": "454973-116-R2-J3-PDC complex spheroid viability", "Group Label": "Yes"}
{"Compound": "Cn1ncnc1[C@H]1c2n[nH]c(=O)c3cc(F)cc(c23)N[C@@H]1c1ccc(F)cc1 + Nc1ccc(C#CCN(C(=O)Cc2ncc(C(F)(F)F)cc2C(F)(F)F)c2ccc(F)cc2)nn1", "Tested Target": "454973-116-R2-J3-PDC complex spheroid viability", "Group Label": "No"}
{"Compound": "C=CCn1c(=O)c2cnc(Nc3ccc(N4CCN(C)CC4)cc3)nc2n1-c1cccc(C(C)(C)O)n1 + COC1C(OC(N)=O)C(O)C(Oc2ccc3c(O)c(NC(=O)c4ccc(O)c(CC=C(C)C)c4)c(=O)oc3c2C)OC1(C)C", "Tested Target": "454973-116-R2-J3-PDC complex spheroid viability", "Group Label": "No"}
{"Compound": "CC[C@@]1(O)C(=O)OCc2c1cc1n(c2=O)Cc2cc3c(CN(C)C)c(O)ccc3nc2-1 + Cc1cccc(N(C)C(=O)C2C(O)CCN2c2nc(C)cc(C(F)(F)F)c2C#N)c1", "Tested Target": "454973-116-R2-J3-PDC complex spheroid viability", "Group Label": "Yes"}
{"Compound": "C=CCn1c(=O)c2cnc(Nc3ccc(N4CCN(C)CC4)cc3)nc2n1-c1cccc(C(C)(C)O)n1 + Cc1cccc(N(C)C(=O)C2C(O)CCN2c2nc(C)cc(C(F)(F)F)c2C#N)c1", "Tested Target": "454973-116-R2-J3-PDC complex spheroid viability", "Group Label": "No"}
